Ratio IC50 values, listed per item
assay: Selectivity ratio of IC50 for TCPTP to IC50 for PTP1B

molecule: CC(C)(C)OC(=O)NC(Cc1ccc2cc(O)ccc2c1)C(=O)O (racemic)
Ratio IC50: 1

molecule: O=C(/C=C/c1cccc(Cl)c1)NC(Cc1ccc2cc(OCc3ccccc3F)ccc2c1)C(=O)O (racemic)
Ratio IC50: 1

molecule: COc1cccc(/C=C/C(=O)NC(Cc2ccc3cc(OCc4ccccc4F)ccc3c2)C(=O)O)c1 (racemic)
Ratio IC50: 1

molecule: CC(C)(C)OC(=O)NC(Cc1ccc2cc(OCc3ccccc3F)ccc2c1)C(=O)O (racemic)
Ratio IC50: 1
